System: HT29 colon
Assay: NCI tumour cell line growth inhibition, 48 h
Listed next: entries and their corresponding GI50.

// worked examples, GI50 included
stdin: Given the molecule NC1=NC(SCc2ccccc2CCl)c2ncn(Cc3ccccc3CCl)c2N1 (stereo not drawn) , what is its reported GI50?
stdout: 1.88 µM

stdin: Given the molecule CN1CCN(CCCOc2ccc3nc(Nc4ccc(F)c(F)c4)ccc3c2)CC1 , what is its reported GI50?
stdout: 0.822 µM

stdin: Given the molecule CC12OC(C(=O)C13CC3)C1C(=O)c3c(O)ccc(O)c3C(=O)C12 (stereo not drawn) , what is its reported GI50?
stdout: 16.2 µM

stdin: Given the molecule O=C1NC(=O)C(=Cc2cn(Cc3ccccc3)c3ccccc23)C(=O)N1 , what is its reported GI50?
stdout: 23.5 µM

stdin: Given the molecule C=CC1C(CC2OC(CO)C(O)C(O)C2O)OC=C2C(=O)OCCC21O (stereo not drawn) , what is its reported GI50?
stdout: 2.23 µM

stdin: Given the molecule Cc1c(Nc2nccc3cc(CN4CC[C@@H](O)C4)cnc23)cccc1-c1cccc(-c2nc3cc(CN4CC[C@@H](C(=O)O)C4)cc(C#N)c3o2)c1C , what is its reported GI50?
stdout: 2.09 µM

stdin: Given the molecule CCC[CH2][Sn]([CH2]CCC)([CH2]CCC)/[C](=C/[Si](C)(C)c1ccccc1)c1ccc2c(c1)OCO2 , what is its reported GI50?
stdout: 19.2 µM

Turning to the following molecule.
stdin: Given the molecule O=C1NC(=O)C(c2cccc(Cl)c2)=C1Nc1ccc(Cl)c(C(=O)O)c1 , what is its reported GI50?
stdout: > 25 µM

---

Tested on: OVCAR-8 ovarian
Assay: NCI tumour cell line growth inhibition, 48 h
metric: TGI (µM)
A number alone suffices; assume µM.

// worked examples, TGI included
stdin: Given the compound C/C(=C\Cc1ccc(F)cc1)CCCCCC/C(C)=C/Cc1ccc(F)cc1 , what is its reported TGI?
stdout: 39.6

stdin: Given the compound C=C(C(=O)OC)[C@@H]1CC2OC1C(=O)C(C)CCC/C(C)=C/CC[C@@]2(C)O (some centres undefined) , what is its reported TGI?
stdout: 93.6

stdin: Given the compound O=[N+]([O-])c1cc(/C=N\NS(=O)(=O)c2ccc(Cl)cc2)c(O)c([N+](=O)[O-])c1 , what is its reported TGI?
stdout: 64.5

Turning to the following compound.
stdin: Given the compound O=C1C=CC2(O[C@H](C3CCCCC3)[C@@H](C3CCCCC3)O2)C(SC(=O)c2ccccc2)C1 (some centres undefined) , what is its reported TGI?
stdout: 13.9

---

Tested on: SF-539 CNS
Experiment: NCI tumour cell line growth inhibition, 48 h; in the data active = GI50 below about 0.43 µM; inactive = the rest
Log the outcome using a class from active, inactive

Record excerpt, results attached:
stdin: I would be grateful if you could indicate the recorded call for CCN1CCN(c2cc(C(=O)Nc3cccc(Nc4ccc5c(OC)cccc5n4)c3)cc(C(F)(F)F)c2)CC1 .
stdout: inactive

stdin: I would be grateful if you could indicate the recorded call for Cc1nn(C)c2ncnc(N/N=C/c3cccc(O)c3O)c12 .
stdout: active

stdin: I would be grateful if you could indicate the recorded call for CN1CCN(Cc2ccc(NC(=O)c3[nH]ncc3Nc3ncnc4[nH]ccc34)cc2)CC1 .
stdout: active

stdin: I would be grateful if you could indicate the recorded call for O=C1NC(=O)C(c2cccc(Cl)c2)=C1Nc1ccc(Cl)c(C(=O)O)c1 .
stdout: inactive

We now examine a further compound.
stdin: I would be grateful if you could indicate the recorded call for COc1ccc2nc(C)cc(Sc3nc4ccccc4s3)c2c1 .
stdout: inactive

---

Listed next: entries and their corresponding TGI.
Test system: HOP-62 NSCLC
Experiment: NCI tumour cell line growth inhibition, 48 h

// worked examples, TGI included
stdin: Given the compound O=S(=O)(/N=S(/Nc1ccccc1)C(F)(F)Cl)c1ccccc1 (stereo unspecified) , what is its reported TGI?
stdout: > 100 µM

stdin: Given the compound S=C1C(=Nc2ccccc2)N(c2ccccc2)/C(=N\c2cccc[n+]2Cc2ccccc2)N1c1ccccc1 , what is its reported TGI?
stdout: 29.8 µM

New cases:
stdin: Given the compound NC(N)=NC(N)=Nc1ccc(C(=O)O)cc1 , what is its reported TGI?
stdout: > 100 µM

stdin: Given the compound Cc1nc(NS(=O)(=O)c2ccc(NCN3C(=O)c4ccccc4C3=O)cc2)oc1C , what is its reported TGI?
stdout: > 100 µM

stdin: Given the compound O=C1c2ccccc2C2(c3ccc(F)cc3)NCCN12 (stereo unspecified) , what is its reported TGI?
stdout: > 100 µM

stdin: Given the compound NC1=NC(SCc2ccccc2CCl)c2ncn(Cc3ccccc3CCl)c2N1 (stereo unspecified) , what is its reported TGI?
stdout: 3.16 µM

---

Tested on: CAKI-1 renal
Experiment: NCI tumour cell line growth inhibition, 48 h
Listed next: entries and their corresponding GI50.

stdin: Given the compound CN1CCN(Cc2ccc(NC(=O)c3[nH]ncc3Nc3ncnc4[nH]ccc34)cc2)CC1 , what is its reported GI50?
stdout: 1830 nM

stdin: Given the compound Cc1ccc2oc(=O)c3c(O)c4cccc(OC5OC(C)C6O[C@@H](c7ccccc7)OC6C5OC5OC(C)C(O)C(O)C5O)c4c4oc(=O)c1c2c34 (some centres undefined) , what is its reported GI50?
stdout: 41.5 nM

New cases:
stdin: Given the compound CN1CCN(C(=O)c2ccc(NC(=O)Nc3ccc(-c4nc(N5CCOCC5)c5cccn5n4)cc3)cc2)CC1 , what is its reported GI50?
stdout: 542 nM

stdin: Given the compound O=C1NC(=O)C(=Cc2cn(Cc3ccccc3)c3ccccc23)C(=O)N1 , what is its reported GI50?
stdout: 2150 nM

---

System: MDA-MB-435
Listed next: entries and their corresponding GI50.

stdin: Look up GI50 with MDA-MB-435 for this molecule: CC(C)[P+](c1ccccc1)(c1ccccc1)c1ccccc1
stdout: 2650 nM

stdin: Look up GI50 with MDA-MB-435 for this molecule: FC(F)c1ncc(-c2ccc(C(F)(F)F)cc2)c(NC2CCCCCC2)n1
stdout: > 10000 nM

stdin: Look up GI50 with MDA-MB-435 for this molecule: COc1cc2nc(N3CCC[C@H](NC4=CC(=O)c5ccccc5C4=O)C3)nc(N)c2cc1OC
stdout: 2050 nM

stdin: Look up GI50 with MDA-MB-435 for this molecule: Cc1nn(C)c2ncnc(N/N=C/c3cccc(O)c3O)c12
stdout: 609 nM

stdin: Look up GI50 with MDA-MB-435 for this molecule: CN1CCN(C(=O)c2ccc(NC(=O)Nc3ccc(-c4nc(N5CCOCC5)c5cccn5n4)cc3)cc2)CC1
stdout: 32 nM

stdin: Look up GI50 with MDA-MB-435 for this molecule: CC12OC(C(=O)C13CC3)C1C(=O)c3c(O)ccc(O)c3C(=O)C12 (stereo not drawn)
stdout: 18400 nM

stdin: Look up GI50 with MDA-MB-435 for this molecule: O=C(O)Cn1c2c(c3c1-c1ccccc1C3=O)C(=O)CCC2
stdout: > 100000 nM

stdin: Look up GI50 with MDA-MB-435 for this molecule: CC1CCCC(C#N)(NOC2=NCCN2)C1 (stereo not drawn)
stdout: 35400 nM

---

System: A498 renal
Test: NCI tumour cell line growth inhibition, 48 h
metric: TGI

// worked examples, TGI included
stdin: Given the compound O=c1[nH]c2ccccc2c(O)c1/C=N/C(=S)NC1CCCCC1 , what is its reported TGI?
stdout: > 100 µM

stdin: Given the compound FC(F)c1ncc(-c2ccc(C(F)(F)F)cc2)c(NC2CCCCCC2)n1 , what is its reported TGI?
stdout: > 10 µM

stdin: Given the compound O=C1N2CCC[C@H]2CS1(=O)=O , what is its reported TGI?
stdout: 44.5 µM

New cases:
stdin: Given the compound O=C(O)Cn1c2c(c3c1-c1ccccc1C3=O)C(=O)CCC2 , what is its reported TGI?
stdout: > 100 µM

stdin: Given the compound O=c1cc(N2CCOCC2)n2c(ccc3ccccc32)n1 , what is its reported TGI?
stdout: > 100 µM

stdin: Given the compound CC12CCC(=O)C(O1)C1C(=O)c3ccc4c(ccc5ccccc54)c3C(=O)C12 (stereo not drawn) , what is its reported TGI?
stdout: 5.83 µM

---

Listed next: entries and their corresponding TGI.
Test system: UACC-62 melanoma
Assay: NCI tumour cell line growth inhibition, 48 h
A number alone suffices; assume µM.

// worked examples, TGI included
stdin: Given the molecule COc1ccc(OC)c2c(C)ccnc12 , what is its reported TGI?
stdout: 93.5

stdin: Given the molecule CC1CCCC(C#N)(NOC2=NCCN2)C1 (configuration not stated) , what is its reported TGI?
stdout: 94.8

stdin: Given the molecule COc1ccc(Nc2ncnc3ccc(-c4cncc(NS(C)(=O)=O)c4)cc23)cc1Cl , what is its reported TGI?
stdout: 8.31

stdin: Given the molecule Oc1cccc2c(Br)ccnc12 , what is its reported TGI?
stdout: 11.1

stdin: Given the molecule Clc1ccc(-c2nn3c(COc4cccc(OCc5nnc6sc(-c7ccc(Cl)cc7)nn56)c4)nnc3s2)cc1 , what is its reported TGI?
stdout: 77.1

New cases:
stdin: Given the molecule Cc1cc(=O)[nH]c(N/N=C/c2ccccc2O)n1 , what is its reported TGI?
stdout: 51

stdin: Given the molecule O=C1NC(=O)C(=Cc2cn(Cc3ccccc3)c3ccccc23)C(=O)N1 , what is its reported TGI?
stdout: 15.7

stdin: Given the molecule O=C(O)COc1ccc(OCC(=O)O)cc1 , what is its reported TGI?
stdout: 2.9
